Kindly supply the reported Injury Soybean values for the records listed here.
# Tested on: soybean
# experimental protocol: Upland foliar application test (Test 3), crop injury
# Type: in vivo
# protocol conditions: 30 g ai/a, foliar spray at 2-3 leaves, 30th day

Could you share which Injury Soybean value was measured for COc1cc(OC)nc(Oc2ccccc2C=NOCC=Cc2ccccc2C(F)(F)F)n1 [compound 32] ?
0 (91-100 (No damages))

Could you share which Injury Soybean value was measured for COc1cc(OC)nc(Oc2ccccc2C=NOCC=C(C)Cl)n1 [compound 12] ?
0 (91-100 (No damages))

Could you share which Injury Soybean value was measured for CCc1ccc(C=CCON=Cc2ccccc2Oc2nc(OC)cc(OC)n2)cc1 [compound 37] ?
0 (91-100 (No damages))

Could you share which Injury Soybean value was measured for COc1cc(OC)nc(Oc2ccccc2C=NOCC=Cc2ccc(Cl)c(Cl)c2)n1 [compound 31] ?
0 (91-100 (No damages))

Could you share which Injury Soybean value was measured for COc1cc(OC)nc(Oc2ccccc2C=NO)n1 [Compound No. 24] ?
1 (71-90 (Slight damages))

Could you share which Injury Soybean value was measured for COc1cc(OC)nc(Oc2ccccc2C=NOCC=Cc2c(F)cccc2F)n1 [compound 33] ?
0 (91-100 (No damages))

---

# Test system: soybean
# experimental protocol: Upland soil application test (Test 2), crop injury
# Format: in vivo
# protocol conditions: 30 g ai/a, soil spray before emergence, 30 days later
readout kind: Injury Soybean

Could you share which Injury Soybean value was measured for COc1cc(OC)nc(Oc2ccccc2C=NOCC=C(C)C)n1 [Compound No. 7] ?
0 (91-100 (No damages))

Could you share which Injury Soybean value was measured for COc1cc(OC)nc(Oc2ccccc2C=NOCC=C(C)Cl)n1 [compound 12] ?
0 (91-100 (No damages))

Could you share which Injury Soybean value was measured for COc1cc(OC)nc(Oc2ccccc2C=NOCC=CCl)n1 [compound 11] ?
0 (91-100 (No damages))

Could you share which Injury Soybean value was measured for COc1cc(OC)nc(Oc2ccccc2C=NOCC=Cc2ccc(C(F)(F)F)cc2)n1 [compound 35] ?
0 (91-100 (No damages))

Could you share which Injury Soybean value was measured for COc1cc(OC)nc(Oc2ccccc2C=NOCC=Cc2ccccc2)n1 [Compound No. 9] ?
0 (91-100 (No damages))

---

# System: Sagittaria pygmaea
# experimental protocol: Treatment of soil under submerged condition, pre-emergence (Test 4)
# Assay type: in vivo
# protocol conditions: 30 g ai/a granule, 30 days later
readout kind: Herbicidal effects Sagittaria Pygmaea

Could you share which Herbicidal effects Sagittaria Pygmaea value was measured for COc1cc(OC)nc(Oc2ccccc2C=NOCc2ccc(Cl)cc2Cl)n1 ?
3 (11-40 (Medium damages))

Could you share which Herbicidal effects Sagittaria Pygmaea value was measured for COc1cc(OC)nc(Oc2ccccc2C=NOCC=Cc2ccccc2Br)n1 ?
5 (0-5 (Death))

Could you share which Herbicidal effects Sagittaria Pygmaea value was measured for COc1cc(OC)nc(Oc2ccccc2C=NOCCc2ccccc2)n1 ?
5 (0-5 (Death))

Could you share which Herbicidal effects Sagittaria Pygmaea value was measured for COc1cc(OC)nc(Oc2ccccc2C=NOC2CCCCC2)n1 ?
5 (0-5 (Death))

Could you share which Herbicidal effects Sagittaria Pygmaea value was measured for C#CCON=Cc1ccccc1Oc1nc(OC)cc(OC)n1 ?
4 (6-10 (Severe damages))

Could you share which Herbicidal effects Sagittaria Pygmaea value was measured for COc1cc(OC)nc(Oc2ccccc2C=NOCc2ccccc2)n1 ?
3 (11-40 (Medium damages))

Could you share which Herbicidal effects Sagittaria Pygmaea value was measured for COc1cc(OC)nc(Oc2ccccc2C=NOCc2cccc(C)c2)n1 ?
4 (6-10 (Severe damages))

Could you share which Herbicidal effects Sagittaria Pygmaea value was measured for COc1cc(OC)nc(Oc2ccccc2C=NOCC=Cc2c(F)cccc2F)n1 ?
5 (0-5 (Death))

Could you share which Herbicidal effects Sagittaria Pygmaea value was measured for CC=CCON=Cc1ccccc1Oc1nc(OC)cc(OC)n1 ?
4 (6-10 (Severe damages))
